# credit: patent US20210038607A1

The entries below come with measured IC50 values attached.
study.target: Human HDAC7 (Homo sapiens)
Construct: (a.a. 518-end) with N-terminal GST tag; GST (N); host or cells: baculovirus expression system
Sequence (Q8WUI4 518-952 limits assumed): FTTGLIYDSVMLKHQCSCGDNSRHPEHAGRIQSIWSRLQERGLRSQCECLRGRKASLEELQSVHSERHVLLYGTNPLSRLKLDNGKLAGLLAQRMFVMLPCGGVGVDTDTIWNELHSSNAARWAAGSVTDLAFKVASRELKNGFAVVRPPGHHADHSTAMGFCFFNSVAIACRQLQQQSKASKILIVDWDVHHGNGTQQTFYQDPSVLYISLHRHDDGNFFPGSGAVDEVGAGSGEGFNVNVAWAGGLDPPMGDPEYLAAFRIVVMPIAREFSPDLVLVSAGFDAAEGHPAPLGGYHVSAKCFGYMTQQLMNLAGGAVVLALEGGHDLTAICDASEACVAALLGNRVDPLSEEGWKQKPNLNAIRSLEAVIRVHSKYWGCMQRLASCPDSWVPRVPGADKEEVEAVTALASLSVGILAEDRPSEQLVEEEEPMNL
test.name: HDAC7 biochemical assay, class IIa-specific substrate
test.conditions: read-out: HDAC Isoform IC50 (nM) 7

FC(F)(F)c1nc(-c2ccc(CN(c3cnccn3)c3cccc(N4CCOCC4)n3)s2)no1 [Example W]; ≤ 10000 nM
FC(F)(F)c1cnnc(N(Cc2ccc(-c3noc(C(F)(F)F)n3)s2)c2cnccn2)c1 [Example EF]; ≤ 10000 nM
O=C(c1cnnc(N(Cc2ccc(-c3noc(C(F)(F)F)n3)s2)c2cnccn2)c1)N1CCOCC1 [Example EB]; ≤ 1000 nM

Query block: Quickly give me recorded IC50 for FC(F)(F)c1cnnc(N(Cc2ccc(-c3noc(C(F)(F)F)n3)s2)c2cccnc2)c1 [Example EI]
Result block: ≤ 10000 nM

Query block: Quickly give me recorded IC50 for O=C(c1cnnc(N(Cc2ccc(-c3noc(C(F)(F)F)n3)s2)c2cnccn2)c1)N1C[C@@H]2C[C@H]1CO2 [Example FV]
Result block: ≤ 10000 nM

Query block: Quickly give me recorded IC50 for CC1(c2cnnc(N(Cc3ccc(-c4noc(C(F)(F)F)n4)s3)c3cnccn3)c2)COC1 [Example GT]
Result block: ≤ 10000 nM

Query block: Quickly give me recorded IC50 for FC(F)(F)c1nc(-c2ccc(CN(c3cnccn3)c3cnc4[nH]ccc4n3)s2)no1 [Example BN]
Result block: ≤ 500 nM

Query block: Quickly give me recorded IC50 for CN1CCN(c2ccc(N(Cc3ccc(-c4noc(C(F)(F)F)n4)s3)c3cnccn3)nn2)CC1 [Example DK]
Result block: ≤ 500 nM

Query block: Quickly give me recorded IC50 for Cn1cc(-c2ccc(N(Cc3ccc(-c4noc(C(F)(F)F)n4)s3)c3cnccn3)nn2)cn1 [Example DO]
Result block: ≤ 1000 nM

Query block: Quickly give me recorded IC50 for COC1(C(F)(F)F)CN(C(=O)c2cnnc(N(Cc3ccc(-c4noc(C(F)(F)F)n4)s3)c3cnccn3)c2)C1 [Example GL]
Result block: ≤ 10000 nM

Query block: Quickly give me recorded IC50 for Cc1ncc(N(Cc2ccc(-c3noc(C(F)(F)F)n3)s2)c2cnccn2)cn1 [Example CS]
Result block: ≤ 500 nM

Query block: Quickly give me recorded IC50 for CN(C)c1cc(N(Cc2ccc(-c3noc(C(F)(F)F)n3)s2)c2cnccn2)ncn1 [Example CI]
Result block: ≤ 10000 nM

Query block: Quickly give me recorded IC50 for CC(F)(F)c1cnnc(N(Cc2ccc(-c3noc(C(F)(F)F)n3)s2)c2cnccn2)c1 [Example GU]
Result block: ≤ 10000 nM

Query block: Quickly give me recorded IC50 for O=C(c1cnnc(N(Cc2ccc(-c3noc(C(F)(F)F)n3)s2)c2cnccn2)c1)N1CC(O)(C(F)(F)F)C1 [Example GD]
Result block: ≤ 1000 nM

Query block: Quickly give me recorded IC50 for FC(F)(F)c1cnnc(N(Cc2ccc(-c3noc(C(F)(F)F)n3)s2)c2ccc(N3CCOCC3)nn2)c1 [Example EX]
Result block: ≤ 10000 nM

Query block: Quickly give me recorded IC50 for Cn1ccc2c(N(Cc3ccc(-c4noc(C(F)(F)F)n4)s3)c3cnccn3)ncnc21 [Example CM]
Result block: ≤ 10000 nM

###

The entries below come with measured IC50 values attached.
study.target: Human HDAC4 (Homo sapiens, UniProt P56524)
Construct: amino acids 627-1085 with N-terminal GST tag; GST (N); host or cells: baculovirus expression system
Sequence (P56524 627-1084 limits assumed): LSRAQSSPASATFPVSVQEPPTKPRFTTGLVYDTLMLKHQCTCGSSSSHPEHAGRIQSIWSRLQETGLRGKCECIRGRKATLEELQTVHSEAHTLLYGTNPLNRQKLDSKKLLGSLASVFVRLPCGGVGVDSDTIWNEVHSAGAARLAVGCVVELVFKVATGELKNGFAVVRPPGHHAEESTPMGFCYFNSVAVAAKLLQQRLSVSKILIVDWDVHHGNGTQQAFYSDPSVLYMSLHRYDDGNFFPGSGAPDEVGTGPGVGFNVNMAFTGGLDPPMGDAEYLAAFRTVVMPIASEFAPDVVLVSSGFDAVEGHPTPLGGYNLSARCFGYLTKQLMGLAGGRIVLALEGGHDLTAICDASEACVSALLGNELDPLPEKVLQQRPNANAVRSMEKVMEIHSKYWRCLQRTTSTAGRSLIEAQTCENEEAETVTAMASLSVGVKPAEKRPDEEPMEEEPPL
test.name: HDAC4 biochemical assay, class IIa-specific substrate
test.conditions: read-out: HDAC Isoform IC50 (nM) 4

FC(F)(F)c1cnnc(N(Cc2ccc(-c3noc(C(F)(F)F)n3)s2)c2ccncn2)c1; ≤ 10000 nM

Query block: Quickly give me recorded IC50 for "O=C(c1cnnc(N(Cc2ccc(-c3noc(C(F)(F)F)n3)s2)c2cnccn2)c1)N1CCC12COC2"
Result block: ≤ 1000 nM

Query block: Quickly give me recorded IC50 for "CN(C)C1CN(C(=O)c2cnnc(N(Cc3ccc(-c4noc(C(F)(F)F)n4)s3)c3cnccn3)c2)C1"
Result block: ≤ 10000 nM

Query block: Quickly give me recorded IC50 for "O=C(c1cnnc(N(Cc2ccc(-c3noc(C(F)(F)F)n3)s2)c2cnccn2)c1)N1CCC1"
Result block: ≤ 10000 nM

###

study.target: Human HDAC8 (Homo sapiens)
Construct: full length with C-terminal His tag, MW=42.6 kDa; His (C); host or cells: baculovirus expression system
Sequence (Q9BY41 whole entry): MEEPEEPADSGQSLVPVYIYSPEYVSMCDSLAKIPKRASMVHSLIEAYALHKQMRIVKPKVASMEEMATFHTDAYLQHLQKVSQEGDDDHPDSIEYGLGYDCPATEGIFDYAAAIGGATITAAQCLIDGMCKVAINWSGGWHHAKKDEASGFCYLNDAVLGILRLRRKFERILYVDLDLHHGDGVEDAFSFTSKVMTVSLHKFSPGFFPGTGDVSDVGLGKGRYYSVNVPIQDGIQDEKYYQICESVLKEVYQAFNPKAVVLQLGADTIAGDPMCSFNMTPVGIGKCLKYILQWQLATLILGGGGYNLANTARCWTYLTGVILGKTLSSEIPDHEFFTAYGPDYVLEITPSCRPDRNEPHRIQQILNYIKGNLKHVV
test.name: HDAC8 biochemical assay, AMC-labeled peptide substrate
test.conditions: read-out: HDAC Isoform IC50 (nM) 8
measurement.type: IC50

Example molecules with recorded IC50:
O=C(c1cnnc(N(Cc2ccc(-c3noc(C(F)(F)F)n3)s2)c2cnccn2)c1)N1CCC12COC2; ≤ 10000 nM
FC(F)(F)c1nc(-c2ccc(CN(c3ccccn3)c3cnccn3)s2)no1; > 10000 nM
O=C(c1ccc(N(Cc2ccc(-c3noc(C(F)(F)F)n3)s2)c2cnccn2)nn1)N1CCCC1; ≤ 1000 nM

With those in mind, consider the next molecule.
Query block: Quickly give me recorded IC50 for "CC(=O)Nc1cnnc(N(Cc2ccc(-c3noc(C(F)(F)F)n3)s2)c2cnccn2)c1"
Result block: ≤ 10000 nM

###

study.target: Human HDAC7 (Homo sapiens)
Construct: (a.a. 518-end) with N-terminal GST tag; GST (N); host or cells: baculovirus expression system
Sequence (Q8WUI4 518-952 limits assumed): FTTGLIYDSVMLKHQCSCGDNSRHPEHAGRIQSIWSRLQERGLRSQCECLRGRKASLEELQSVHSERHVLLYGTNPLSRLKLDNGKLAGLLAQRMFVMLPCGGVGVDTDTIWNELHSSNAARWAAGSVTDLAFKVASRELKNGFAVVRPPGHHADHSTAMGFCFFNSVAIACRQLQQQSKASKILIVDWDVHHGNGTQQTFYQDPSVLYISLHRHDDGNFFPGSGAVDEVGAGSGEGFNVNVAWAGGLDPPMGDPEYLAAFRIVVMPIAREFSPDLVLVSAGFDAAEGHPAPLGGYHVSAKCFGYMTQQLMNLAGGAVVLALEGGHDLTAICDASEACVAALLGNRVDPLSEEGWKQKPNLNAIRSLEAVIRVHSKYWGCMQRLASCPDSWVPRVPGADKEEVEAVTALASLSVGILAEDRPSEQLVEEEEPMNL
test.name: HDAC7 biochemical assay, class IIa-specific substrate
test.conditions: read-out: HDAC Isoform IC50 (nM) 7
The entries below come with measured IC50 values attached.

Example compounds with recorded IC50:
CN(C)C(=O)c1cncc(N(Cc2ccc(-c3noc(C(F)(F)F)n3)s2)c2cnccn2)n1 [Example BS]; ≤ 10000 nM
O=C(c1cnnc(N(Cc2ccc(-c3noc(C(F)(F)F)n3)s2)c2cnccn2)c1)N1CCCC1 [Example EA]; ≤ 10000 nM
FC(F)(F)c1nc(-c2ccc(CN(c3cnccn3)c3cc4nccnc4cn3)s2)no1 [Example AF]; ≤ 10000 nM
N#Cc1cnnc(N(Cc2ccc(-c3noc(C(F)(F)F)n3)s2)c2cnccn2)c1 [Example EE]; ≤ 10000 nM
FC(F)(F)c1nc(-c2ccc(CN(c3ccncn3)c3cnccn3)s2)no1 [Example BZ]; ≤ 500 nM
FC(F)(F)c1nc(-c2ccc(CN(c3cnccn3)c3ncccc3C3CC3)s2)no1 [Example AM]; ≤ 1000 nM
FC(F)(F)c1nc(-c2ccc(CN(c3cnccn3)c3cscn3)s2)no1 [Example T]; ≤ 10000 nM
CNC(=O)c1ccc(N(Cc2ccc(-c3noc(C(F)(F)F)n3)s2)c2cnccn2)nn1 [Example FC]; ≤ 500 nM

Query block: Quickly give me recorded IC50 for FC(F)(F)c1cnnc(N(Cc2ccc(-c3noc(C(F)(F)F)n3)s2)c2ncccn2)c1 [Example EK]
Result block: > 10000 nM

Query block: Quickly give me recorded IC50 for Cc1ncnc(C)c1N(Cc1ccc(-c2noc(C(F)(F)F)n2)s1)c1cnccn1 [Example DC]
Result block: ≤ 500 nM

Query block: Quickly give me recorded IC50 for Cc1cnc(N(Cc2ccc(-c3noc(C(F)(F)F)n3)s2)c2cnccn2)cn1 [Example BH]
Result block: ≤ 1000 nM

Query block: Quickly give me recorded IC50 for Cc1cnc(C)c(N(Cc2ccc(-c3noc(C(F)(F)F)n3)s2)c2cnccn2)n1 [Example BU]
Result block: ≤ 1000 nM

Query block: Quickly give me recorded IC50 for CN1CCN(C(=O)c2cnnc(N(Cc3ccc(-c4noc(C(F)(F)F)n4)s3)c3cnccn3)c2)CC1 [Example EC]
Result block: ≤ 1000 nM

Query block: Quickly give me recorded IC50 for COc1nccnc1N(Cc1ccc(-c2noc(C(F)(F)F)n2)s1)c1cnccn1 [Example BF]
Result block: ≤ 10000 nM

Query block: Quickly give me recorded IC50 for FC(F)(F)c1nc(-c2ccc(CN(c3cnccn3)c3ccc4nncn4n3)s2)no1 [Example DU]
Result block: ≤ 1000 nM

Query block: Quickly give me recorded IC50 for CN(C)c1nccc(N(Cc2ccc(-c3noc(C(F)(F)F)n3)s2)c2cnccn2)n1 [Example CC]
Result block: ≤ 10000 nM

Query block: Quickly give me recorded IC50 for O=C(c1ccc(N(Cc2ccc(-c3noc(C(F)(F)F)n3)s2)c2cnccn2)nn1)N1CCOCC1 [Example DS]
Result block: ≤ 500 nM
